Biological target: T1, SLF1^tBRCT I189A (UniProt Q9BQI6 1-199, I189A)
T1 construct: SMC5/6 localization factor 1 (SLF1), tandem BRCT repeat, residues 1-199, with I189A; source: E. coli BL21 Rosetta (DE3), purified (same protocol as the wild type)
T1 sequence (looked up): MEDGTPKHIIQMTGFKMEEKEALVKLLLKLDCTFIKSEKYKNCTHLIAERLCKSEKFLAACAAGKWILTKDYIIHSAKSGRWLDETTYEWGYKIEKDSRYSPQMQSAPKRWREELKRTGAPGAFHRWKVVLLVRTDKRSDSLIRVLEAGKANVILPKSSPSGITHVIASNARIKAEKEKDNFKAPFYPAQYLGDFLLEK
Test: ITC; MicroCal ITC 200, 25 °C, 20 mM Tris (pH 7.5), 200 mM sodium chloride; 1.3 mM Rad18 peptide or 6 mM BRCTide injected into 0.1 mM (Rad18 peptides) or 0.2 mM (BRCTide) SLF1^tBRCT in the cell; three independent repeats
Conditions: both partners purified
Square brackets hold non-standard residues; d marks the D form. Ends that are not written are not given here. pS = N[C@@H](COP(=O)(O)O)C(=O)O
QUANTITY MEASURED: Kd (nM)
Just the number please, in nM, no unit attached.

For record SDSCNS[pS]S[pS]DIIRDLLE (peptide, UniProt Q9NS91 436-452, looked up, Rad18, human, Ser442/Ser444-containing region, residues 436-452; also called dually phosphorylated Rad18 peptide; source: synthetic peptide) [Rad18 peptide containing phosphorylated Ser442 and Ser444 (Rad18-2P)] the listed Kd is 31
